System: P. aeruginosa PAE/K799 H187
Assay: MIC by microtitre broth dilution
Type: cell-based
Details: Mueller Hinton broth, 37° C., 24 h, aerobic
readout label: Minimum inhibitory concentration, P. aeruginosa PAE/K799 H187 Wt Gram−

COc1cccc2c1C(=O)c1c(O)c3c(c(O)c1C2=O)C[C@@](O)(C(=O)CO)C[C@@H]3O[C@H]1C[C@H](N)[C@H](O)[C@H](C)O1 [doxorubicin]    10^−5 Molar
Nc1ncnc2c1ccn2[C@@H]1O[C@H](CO)[C@@H](O)[C@H]1O [tubercidin]    N
Sc1ncc2[nH]cnc2n1 [2-mercaptopurine]    N

###

Tested on: S. epidermidis C621
Assay: MIC by microtitre broth dilution
Format: cell-based
Conditions: Mueller Hinton broth, 37° C., 24 h, aerobic
readout label: Minimum inhibitory concentration, S. epidermidis C621 wt Gram+

CN(Cc1cnc2nc(N)nc(N)c2n1)c1ccc(C(=O)N[C@@H](CCC(=O)O)C(=O)O)cc1 [methotrexate]    N
Sc1ncnc2nc[nH]c12 [6-mercaptopurine]    N
Sc1ncc2[nH]cnc2n1 [2-mercaptopurine]    N
O=c1[nH]cc(F)c(=O)[nH]1 [5-fluorouracil]    10^−7 Molar
Nc1ccn([C@@H]2O[C@H](CO)[C@@H](O)[C@@H]2O)c(=O)n1 [Cytarabine, cytarabine]    N
COc1cc([C@@H]2c3cc4c(cc3[C@@H](O[C@@H]3O[C@@H]5CO[C@@H](C)O[C@H]5[C@H](O)[C@H]3O)[C@H]3COC(=O)[C@H]23)OCO4)cc(OC)c1O [etoposide]    10^−6 Molar
COc1cccc2c1C(=O)c1c(O)c3c(c(O)c1C2=O)C[C@@](O)(C(=O)CO)C[C@@H]3O[C@H]1C[C@H](N)[C@H](O)[C@H](C)O1 [doxorubicin]    10^−6 Molar
NC(=O)NO [hydroxyurea]    N
N.N.[Cl][Pt][Cl] [cisplatin]    N
O=C1c2c(O)ccc(O)c2C(=O)c2c(NCCNCCO)ccc(NCCNCCO)c21 [mitoxantrone]    10^−5 Molar
Nc1ncnc2c1ccn2[C@@H]1O[C@H](CO)[C@@H](O)[C@H]1O [tubercidin]    N
CC[C@@]1(O)C(=O)OCc2c1cc1n(c2=O)Cc2cc3ccccc3nc2-1 [camptothecin]    10^−4 Molar

###

Test system: P. aeruginosa PAE/K799 H187
Assay: MIC by microtitre broth dilution
Assay type: cell-based
Details: Mueller Hinton broth, 37° C., 24 h, aerobic
readout label: Minimum inhibitory concentration, P. aeruginosa PAE/K799 H187 Wt Gram−

Nc1ccn([C@@H]2O[C@H](CO)[C@@H](O)[C@@H]2O)c(=O)n1    N
NC(=O)NO [hydroxyurea]    10^−4 Molar
O=c1[nH]cc(F)c(=O)[nH]1    10^−5 Molar
CC[C@@]1(O)C(=O)OCc2c1cc1n(c2=O)Cc2cc3ccccc3nc2-1    N
O=C1c2c(O)ccc(O)c2C(=O)c2c(NCCNCCO)ccc(NCCNCCO)c21    10^−5 Molar
COc1cc([C@@H]2c3cc4c(cc3[C@@H](O[C@@H]3O[C@@H]5CO[C@@H](C)O[C@H]5[C@H](O)[C@H]3O)[C@H]3COC(=O)[C@H]23)OCO4)cc(OC)c1O [etoposide]    N
N.N.[Cl][Pt][Cl] [cisplatin]    10^−4 Molar
CN(Cc1cnc2nc(N)nc(N)c2n1)c1ccc(C(=O)N[C@@H](CCC(=O)O)C(=O)O)cc1 [methotrexate]    N
Sc1ncnc2nc[nH]c12    N
